Reference source for all entries: paper PMC5454392

Assayed Target: CaBdf1 BD2 (Candida albicans)
Sequence (Q5A4W8 361-501): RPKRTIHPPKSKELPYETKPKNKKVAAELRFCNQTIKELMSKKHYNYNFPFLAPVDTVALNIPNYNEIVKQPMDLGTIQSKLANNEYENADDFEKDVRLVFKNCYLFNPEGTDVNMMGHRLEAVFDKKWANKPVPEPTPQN
Assay Info: HTRF assay, inhibition of BD binding to H4ac4 peptide
Set-up: made in house; host or cells: E. coli BL21(DE3)
pIC50: −log10 of the molar value.
Overview of reported pIC50 across a group of molecules:
Value Kind: pIC50

# Molecule, Assay Value
records = [
    ("CCOC(=O)Nc1cc(-c2ccc(C)c(NS(C)(=O)=O)c2)nn2c(C)nnc12 [Bromosporine, reference compound]", 6.50),
    ("COc1cc2c(cc1-c1c(C)noc1C)ncc1[nH]c(=O)n([C@H](C)c3ccccn3)c12 [IBET-151, reference compound]", 5.83),
    ("Cc1ccc(Nc2c(-c3ccc(O)cc3)nc3c(C)cccn23)cc1", 5.96),
]
